molecular target: UniProt:Q9P1W9
Sequence (Q9P1W9 whole entry): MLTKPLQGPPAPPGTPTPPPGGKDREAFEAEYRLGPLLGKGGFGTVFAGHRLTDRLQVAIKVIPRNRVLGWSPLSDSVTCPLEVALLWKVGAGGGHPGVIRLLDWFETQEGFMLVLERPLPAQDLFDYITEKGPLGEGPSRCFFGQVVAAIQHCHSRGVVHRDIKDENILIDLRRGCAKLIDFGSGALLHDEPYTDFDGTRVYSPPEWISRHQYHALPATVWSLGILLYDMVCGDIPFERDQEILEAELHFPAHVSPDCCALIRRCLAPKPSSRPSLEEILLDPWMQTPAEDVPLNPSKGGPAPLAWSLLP
readout: IC50 (µM)
Supply the numeric figure in µM, leaving out any unit text.

# input Quote IC50 reported for CC1CC[C@H]2C(C)(C)CCC[C@]2(C)C1=Cc1cc(O)c(O)c(C=O)c1O (stereo partly shown) [Siphonodictyal B] please.
# output 6.99
